B1: FBXO3 (parent)
chain: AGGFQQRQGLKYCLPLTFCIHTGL

variants of: B1; test: protein stability index of a GFP-peptide fusion (GPS, HEK-293T) (PSI 1-6); higher = more stable; conditions: c terminus: a fixed tail appended;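 also: lentivirally expressed fusions sorted by FACS into six bins by GFP to DsRed ratio, PSI derived from sequencing read proportions per bin multiplied by bin number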
Classify by measured protein stability index: 1 if it is equal to or exceeds 3, -1 if it is smaller.

hey, is protein stability index for this one >= 3? AGGFQWRQGLKYCLPLTFCIHTGL [Q6W]
1

Hello, I need to know if AGGFQQRQGEKYCLPLTFCIHTGL [L10E] has measured protein stability index not below 3. Thanks!
-1

I'd appreciate it if you could say whether AGGFQQRKGLKYCLPLTFCIHTGL [Q8K] has protein stability index at least equal to 3.
1

Recorded values, source the supplement of paper PMC10567573.
